Taken from the supplement of paper PMC11417369.

system: PfAP2-EXP AP2 domain (GST-tagged); experiment: gcPBM binding intensity (ln(normalized median fluorescence intensity)); higher = stronger DNA binding
Over roughly 25,000 sequences, “ln(normalized median fluorescence intensity)” has its median near 8.6; the highest 2% begin near 10. Shown is part of a subset that was picked to be rich in the highest values.
Reported gcPBM binding intensity (ln) values are given for each entry in this list.
I only need the number, thanks.

Please review the entries below; each comes with its answer.
# residue_codes, subject_of_test, gcPBM binding intensity (ln)
measured = [
    ("TCAAAAAAGACACACCGTACATACTATTTGGACAGG [XGTACX_site7699]", "PfAP2-EXP AP2 domain (GST-tagged)", 8.51),
    ("AACATATACACGAACACACACACATATATATATATA [CACACA_site502]", "PfAP2-EXP AP2 domain (GST-tagged)", 10.1),
    ("TTTTTATTTATATATATATATATATATTATATATAA [CACACA_negctrl_site1654]", "PfAP2-EXP AP2 domain (GST-tagged)", 8.34),
    ("TATTTTTATTTTTAAACCATATATATATATATATAT [CACACA_negctrl_site1560]", "PfAP2-EXP AP2 domain (GST-tagged)", 10.3),
]

Data request: # get_value(readout='gcPBM binding intensity (ln)', item= TATTTATATAGACACACACACATATATTTATATTTT [CACACA_site7240] )
Data returned: 8.52

Data request: Follow-up entry: TTTTTTTATTATTAAAGTACTAAAAAATGAAAACTG [XGTACX_site6758]
Data returned: 8.26

Data request: Follow-up entry: AGTTTCCATATGAGGTGTACATATATAATTTATTAT [XGTACX_site2369]
Data returned: 8.72

* * *

test system: PfAP2-EXP AP2 domain (GST-tagged); experiment: gcPBM binding intensity (ln(normalized median fluorescence intensity)); higher = stronger DNA binding
In all, about 25,000 sequences were measured (“ln(normalized median fluorescence intensity)”: median about 8.6, highest 2% from about 10 on). The list comes from a sample in which the highest values are over-represented; it also holds close analogues and randomly drawn sequences.
Could you label it 1 if measured gcPBM binding intensity (ln) is 9 or higher, and 0 otherwise?

Past entries and their recorded results:
# residue_codes, subject_of_test, cat
records = [
    ("AAAAATTTAAGTGGGGGTACATTTTTTTAACACCTT [XGTACX_site1093]", "PfAP2-EXP AP2 domain (GST-tagged)", 1),
    ("TATACATATTATATATGTACACATATTATATGTATA [XGTACX_site5851]", "PfAP2-EXP AP2 domain (GST-tagged)", 0),
    ("TATTTTTTTTTTATATGTACATAATTTCAAATAAAT [XGTACX_site7747]", "PfAP2-EXP AP2 domain (GST-tagged)", 0),
    ("ATATATATATATATAAAGTGAAGTATGAGGGAAATA [XGTACX_negctrl_site497]", "PfAP2-EXP AP2 domain (GST-tagged)", 1),
    ("ATTCTAAATAAATGTACACACAAAAATAAATGTATA [CACACA_site1732]", "PfAP2-EXP AP2 domain (GST-tagged)", 0),
    ("ATTCATTTTTTGGGGGGTACACCCTTTTAAACATTT [XGTACX_site4797]", "PfAP2-EXP AP2 domain (GST-tagged)", 1),
]

Now turn to the next sequence.
Data request: Is gcPBM binding intensity (ln) for TATATTTCAGGGGGGAGTACAAATTTTTTTATATAA [XGTACX_site1600] at or above 9?
Data returned: 1

* * *

tested on: PfAP2-EXP AP2 domain (GST-tagged); assay: gcPBM binding intensity (ln(normalized median fluorescence intensity)); higher = stronger DNA binding
The full ranking holds about 25,000 sequences; the median of “ln(normalized median fluorescence intensity)” is about 8.6, and the highest 2% start at about 10. This is one part of a sample in which the highest values are shown more often than they occur.
Reported gcPBM binding intensity (ln) values are given for each entry in this list.
I only need the number, thanks.

Please review the entries below; each comes with its answer.
# residue_codes, gcPBM binding intensity (ln)
data = [
    ("ATATATATTTATATATGTACATATTTTTGTGTATTT [XGTACX_site1183]", 8.55),
    ("TACATTCTAATAATTGCACACTGGTTATTAAAAGGA [CACACA_site1614]", 8.4),
    ("CCAACATATATTATCACACACATATATATATATATA [CACACA_site2016]", 10.2),
    ("TTTGTCATTTTATTATGTACTCAGCATATAGGGGGG [XGTACX_site505]", 10.7),
    ("AATACGAAGGATAAGAGTACTAATTAAATAAATGAA [XGTACX_site523]", 8.96),
]

Data request: # get_value(readout='gcPBM binding intensity (ln)', item= TATGAATGGTTAAGTACACACATATTAATATATGTA [CACACA_site3490] )
Data returned: 8.49

Data request: Follow-up entry: AATCTTAAAAATATATGTACTAAAAAAAAAAAAAAT [XGTACX_site6195]
Data returned: 8.37

Data request: Follow-up entry: ATGGTCTGTTAAAGATGTACTTTTTAAAAATAAACG [XGTACX_site2583]
Data returned: 8.48

* * *

system: PfAP2-EXP AP2 domain (GST-tagged); test: gcPBM binding intensity (ln(normalized median fluorescence intensity)); higher = stronger DNA binding
Over roughly 25,000 sequences, “ln(normalized median fluorescence intensity)” has its median near 8.6; the highest 2% begin near 10. This excerpt belongs to a sample that is enriched for the highest values.
Reported gcPBM binding intensity (ln) values are given for each entry in this list.

Please review the entries below; each comes with its answer.
# residue_codes, gcPBM binding intensity (ln)
rows = [
    ("TTTTCCTTATATTATGCATGCAGGGTTTGACATTAT [TGCATGCA_site826]", 10.3),
    ("TAACAAGGTTTATATGCATGCAAACATAACCAAAAA [TGCATGCA_site824]", 9.96),
]

Data request: # get_value(readout='gcPBM binding intensity (ln)', item= ATTATTTATATTATGGTGCATAATTTTGGGTTTCTT )
Data returned: 8.86

Data request: Follow-up entry: CAAGAAAATTGACACACACACATATTTATATTTATA [CACACA_site7766]
Data returned: 8.36

Data request: Follow-up entry: AAAATAATATTTAATACACACATAATTATAATATAA [CACACA_site782]
Data returned: 8.48

Data request: Follow-up entry: TATATAAAAATCAATTGTACTTTTTTTTTTTTTTTT [XGTACX_site7327]
Data returned: 8.52

Data request: Follow-up entry: AGTAGCATATTCTATTGTACATATATATATATATAT [XGTACX_site2980]
Data returned: 10.2

Data request: Follow-up entry: TTTTTTTTTTTTTTTACACACAAATGTATACTATAT [CACACA_site1787]
Data returned: 8.46

Data request: Follow-up entry: ATTTTAAATTAAATTACACACTACGAATAATATATT [CACACA_site4016]
Data returned: 8.43

Data request: Follow-up entry: ACAAAAAAAAAGGAAACACACAAAAAAAAAAAATAA [CACACA_site3523]
Data returned: 8.44

* * *

test system: PfAP2-EXP AP2 domain (GST-tagged); assay: gcPBM binding intensity (ln(normalized median fluorescence intensity)); higher = stronger DNA binding
Whole data set: some 25,000 sequences, median “ln(normalized median fluorescence intensity)” near 8.6, cut for the highest 2% near 10. The sample as a whole holds a higher share of the highest values than the screen did.
Reported gcPBM binding intensity (ln) values are given for each entry in this list.
I only need the number, thanks.

Please review the entries below; each comes with its answer.
# residue_codes, subject_of_test, quantitative_readout
rows = [
    ("GATAAAATGGATGGATGTACATTATTTCCATATAAT [XGTACX_site7781]", "PfAP2-EXP AP2 domain (GST-tagged)", 8.55),
    ("AAAGTGGCCATATATTTTTTTTTTTTTTTCCTTATT [CACACA_negctrl_site485]", "PfAP2-EXP AP2 domain (GST-tagged)", 8.11),
    ("ATTTATTTTATTTTCACACACAAAAATAAATATCCG [CACACA_site2414]", "PfAP2-EXP AP2 domain (GST-tagged)", 8.44),
    ("TTTTGTTTAAAAAAAAAAAACAAAAAAAAGCAATTA [CACACA_negctrl_site314]", "PfAP2-EXP AP2 domain (GST-tagged)", 8.32),
]

API: the following record is the query input.
Data request: Checklist item: gcPBM binding intensity (ln) tested on PfAP2-EXP AP2 domain (GST-tagged), entry AAATATAAAAAAAATATATAATTTTTACATCGAATT [CACACA_negctrl_site544] , value?
Data returned: 8.24
